test: chemical genetic growth profiling, strain panel (AID 1159580);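 note: tested at 20 µM; growth read once vehicle control cultures reached saturation at 30 °C; 1 = growth at the plate median or of vehicle wells; lower values mean less growth of the strain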; details: S. cerevisiae deletion strains, growth OD, locus YPL240C, strain hsp82, active compounds read low
Screen size: about 5,500 compounds; about 2,000 (36%) were called active. Not shown: some 18% with an inconclusive outcome. This is one part of the list.
value kind: normalized growth
// return just the number, without any unit appended

Some solved cases for reference:
Lab note: CC1(C)C2CC[C@]3(C)C(C(=O)C=C4[C@@H]5C[C@@](C)(C(=O)O)CC[C@]5(C)CC[C@]43C)[C@@]2(C)CC[C@@H]1O (some centres undefined) gave normalized growth of 1.01

The measured normalized growth associated with COc1ccc(C2CC(=O)c3ccc(OC)cc3O2)cc1 (centres undefined) reads 0.951

Measured normalized growth, C=CC1=C(C(=O)O)N2C(=O)[C@@H](NC(=O)/C(=N/O)c3csc(N)n3)[C@H]2SC1 : 1.03

So, O=C1C[C@@H](c2ccc(O)cc2)Oc2cc(O)cc(O)c21 ? Its normalized growth was 0.978

The reported normalized growth of the compound C[C@@H]1O[C@@H](O[C@H]2[C@@H](Oc3cc(O)c4c(c3)O[C@H](c3ccc(O)cc3)CC4=O)O[C@H](CO)[C@@H](O)[C@@H]2O)[C@H](O)[C@H](O)[C@H]1O was 0.973

Continuing:
# compound O=C1CC(c2ccc(O)c(O)c2)Oc2cc(O)cc(O)c21 (centres undefined) ; its normalized growth = 1.01

// field: normalized growth; key: CCCCCC(C)N (centres undefined) ; value = 1.03

Reported normalized growth ( CC1(C)C2CC[C@]3(C)C(C(=O)C=C4[C@@H]5C[C@@](C)(C(=O)O)CC[C@]5(C)CC[C@]43C)[C@@]2(C)CC[C@@H]1OC(=O)CCC(=O)O (some centres undefined) ) = 0.978

normalized growth reading for COc1ccc([C@@H]2CC(=O)c3c(O)cc(O)cc3O2)cc1O : 0.997

###

experiment: chemical genetic growth profiling, strain panel (AID 1159580); details: S. cerevisiae deletion strains, growth OD, locus YDR001C, strain nth1, active compounds read low
Screen size: about 5,500 compounds; about 2,000 (36%) were called active. About 18% were inconclusive and are not listed. The list shows a part of the results.
value kind: normalized growth
Give a plain numeric answer without units written out.

Briefly, normalized growth measured for COc1ccc(C[C@H]2NC[C@H](O)[C@H]2OC(C)=O)cc1 : 0.964

Others:
normalized growth reading for COc1c2c(c(CC=C(C)C)c3oc(=O)c(-c4ccc(O)cc4)c(O)c13)OC(C)(C)C=C2 : 0.989

Summary for this compound, O=c1ccc2ccccc2o1 : normalized growth is 0.978

Reported normalized growth ( O=C(O)C1CC([C@@H]2CCCCN2)CN2CCCCC12 (some centres not stated) ) = 0.97

Per the records, this compound ( C[C@@H](N)CO ) has normalized growth equal to 0.983

Entry under test: C=CCc1ccc2c(c1)OCO2 . Its normalized growth was 1.02

The compound listed as C1CCc2nnnn2CC1 has a reported normalized growth of 1.01

###

test: chemical genetic growth profiling, strain panel (AID 1159580); settings: S. cerevisiae deletion strains, growth OD, locus YCR088W, strain abp1
The campaign covered roughly 5,500 compounds. About 2,000 (36%) were called active. About 18% were inconclusive and are not listed. No stated cut-off is given here; in the data, active means normalized growth mostly below about 0.91 (no sharp cut-off); inconclusive means no clear call, values can overlap the other calls; inactive means mostly above about 0.92. The list shows a part of the results.
Please state which outcome applies, choosing from active, inactive

Task: Hello, I am checking results. What call was entered for CC[C@H]1OC(=O)C[C@@H](O)[C@H](C)[C@@H](O[C@@H]2O[C@H](C)[C@@H](O[C@H]3C[C@@](C)(O)[C@@H](O)[C@H](C)O3)[C@H](N(C)C)[C@H]2O)[C@@H](CC=O)C[C@@H](C)C(=O)/C=C/C(C)=C/[C@@H]1CO[C@@H]1O[C@H](C)[C@@H](O)[C@@H](OC)[C@H]1OC ?
Output: inactive

Task: For this compound, state the assay outcome: NCC1CCCCC1CC(=O)O (stereo not given)
Output: inactive

Task: What did this assay record as the result for CCCCOc1ccc(CC(=O)NO)cc1 ?
Output: inactive

Task: What is the recorded call for this compound in the test? S=C=NCc1ccccc1
Output: active

Task: Query: recorded result category for O=C(Cc1ccccc1)NO in this test
Output: inactive

Task: What did this assay record as the result for CC(C)N(C(=O)CCl)c1ccccc1 ?
Output: inactive

Task: Please let me know the test result on file for Cc1cc(=O)c2c(O)cc(O)c(C)c2o1 .
Output: inactive

Task: Please share the test call associated with COc1c2c(c(CC=C(C)C)c3oc(=O)c(-c4ccc(O)cc4)c(O)c13)OC(C)(C)C=C2 .
Output: inactive

Task: Please let me know the test result on file for C=CCc1ccc2c(c1)OCO2 .
Output: inactive

Task: Please let me know the test result on file for CC(C)[C@H](N)C(=O)OCCOCn1cnc2c(=O)[nH]c(N)nc21 .
Output: inactive

###

Below, each entry is listed with its recorded normalized growth.
test: chemical genetic growth profiling, strain panel (AID 1159580);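 note: tested at 20 µM; growth read once vehicle control cultures reached saturation at 30 °C; 1 = growth at the plate median or of vehicle wells; lower values mean less growth of the strain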; conditions: S. cerevisiae deletion strains, growth OD, locus YAL030W, strain snc1, active compounds read low
Hit rate of the full screen: of about 5,500 compounds, about 2,000 (36%) were called active. About 18% were inconclusive and are not listed. This is one part of the list.
Answer with a number only.

Look over these answered cases.
Just so you know, measured normalized growth for OCCN(CCO)c1nc(N2CCCCC2)c2nc(N(CCO)CCO)nc(N3CCCCC3)c2n1 came out at 0.992

Reported normalized growth for N=c1nc(N2CCCCC2)cc(N)n1O was 0.984

// recorded normalized growth for COc1ccc2c(c1)OC[C@@H](Cc1ccc(OC)c(OC)c1)[C@@H]2O : 0.994

So, CC1(C)C2CC[C@]3(C)C(C(=O)C=C4[C@@H]5C[C@@](C)(C(=O)O)CC[C@]5(C)CC[C@]43C)[C@@]2(C)CC[C@@H]1OC(=O)CCC(=O)O (some centres undefined) ? Its normalized growth was 1

Reported normalized growth for CC(C)(C)CC(C)(C)c1ccc(OCCOCC[N+](C)(C)Cc2ccccc2)cc1 was 0.0593

---
normalized growth measured on CCCCCCCCCCCCC[N+](C)(C)Cc1ccccc1 = 0.0556

COc1c2c(c(CC=C(C)C)c3oc(=O)c(-c4ccc(O)cc4)c(O)c13)OC(C)(C)C=C2 yielded normalized growth of 0.916

// normalized growth value for CC1(C)C2CC[C@]3(C)C(C(=O)C=C4[C@@H]5C[C@@](C)(C(=O)O)CC[C@]5(C)CC[C@]43C)[C@@]2(C)CC[C@@H]1O (some centres undefined) : 1

In plain terms, Cc1cc(C(C)(C)CC(C)(C)C)ccc1OCCOCC[N+](C)(C)Cc1ccccc1 has a documented normalized growth of 0.0548

###

experiment: chemical genetic growth profiling, strain panel (AID 1159580);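 note: tested at 20 µM; growth read once vehicle control cultures reached saturation at 30 °C; 1 = growth at the plate median or of vehicle wells; lower values mean less growth of the strain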; conditions: S. cerevisiae deletion strains, growth OD, locus YDL214C, strain PRR2, active compounds read low
Out of some 5,500 compounds screened, about 2,000 (36%) were called active. Inconclusive results (about 18%) are left out. The list shows a part of the results.
Reported normalized growth values for the following compounds.
The reply should be a number, written without any unit.

The compound listed as CCC(C)c1ccccc1NC(=O)c1cc2cccc([N+](=O)[O-])c2[nH]1 (stereo unspecified) has a reported normalized growth of 0.904

The reported value for CC1=CC(=O)C(CCOCCC2=CC(=O)C(C)=CC2=O)=CC1=O in terms of normalized growth is 0.701

normalized growth reading for O=C(Nc1cc(Cl)cc(Cl)c1)Nc1cc(-c2cccs2)[nH]n1 : 0.826

According to the records, this compound Cc1cc(SCc2[nH]nc3oc(=O)cc(C)c23)c(Cl)cc1Cl displays normalized growth of 1.01

The reported value for Cc1oc2c(F)c(F)c(F)c(F)c2c1C(=O)ONC(N)c1ccc(OS(=O)(=O)N(C)C)cc1 (stereo unspecified) in terms of normalized growth is 0.969

Please find the next compound below.
response.value for S=C(Nc1cc(-c2cccs2)[nH]n1)Nc1ccccc1Cl (field: normalized growth) = 0.825

###

The entries below are paired with their reported normalized growth.
assay: chemical genetic growth profiling, strain panel (AID 1159580);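 note: tested at 20 µM; growth read once vehicle control cultures reached saturation at 30 °C; 1 = growth at the plate median or of vehicle wells; lower values mean less growth of the strain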; settings: S. cerevisiae deletion strains, growth OD, locus YJL187C, strain SWE1 (second series), active compounds read low
Out of some 5,500 compounds screened, about 2,000 (36%) were called active. About 18% were inconclusive and are not listed. The list shows a part of the results.
# answer = number (no unit)

Recorded results for 6 compounds are shown here.
// sample CC1(O)/C=C/C=C(\CO)C2CC(C)(C)C2(O)CC1 (stereo unspecified) , its normalized growth was 1.02

The recorded normalized growth for COc1ccc(C(=O)c2ccccc2O)c(O)c1 is 0.896

Just so you know, measured normalized growth for C[N+](C)(C)CCOP(=O)([O-])OP(=O)(O)OC[C@H]1OC(n2ccc(N)nc2=O)[C@H](O)[C@@H]1O (stereo partly specified) came out at 1

Sample Cc1ccc2c(c1)CC[C@H]1CC(=O)CC[C@]21C ; normalized growth observed: 1.01

Note to self: normalized growth recorded for Cc1c(O)cc(O)c2c(=O)c(-c3ccc(O)cc3)coc12 was 0.991

So, COC(=O)c1c(Cl)c(Cl)c(C(=O)OC)c(Cl)c1Cl ? Its normalized growth was 1.01

Further cases:
In plain terms, CC(=O)O[C@H]1C(=O)[C@@]2(C)C([C@H](OC(=O)c3ccccc3)[C@]3(O)C[C@H](OC(=O)[C@H](O)[C@@H](NC(=O)c4ccccc4)c4ccccc4)C(C)=C1C3(C)C)[C@]1(OC(C)=O)CO[C@@H]1C[C@@H]2O (stereo partly specified) has a documented normalized growth of 1.03

COc1cc(O)c(C(=O)c2ccccc2)cc1O yielded normalized growth of 0.993
